# assay_details: self-splicing fitness, log relative to wild type (ln ratio); higher = more splicing; Tetrahymena group I intron in knt gene, E. coli kanamycin selection, DiMSum; sequences stand for … in CUCUCU…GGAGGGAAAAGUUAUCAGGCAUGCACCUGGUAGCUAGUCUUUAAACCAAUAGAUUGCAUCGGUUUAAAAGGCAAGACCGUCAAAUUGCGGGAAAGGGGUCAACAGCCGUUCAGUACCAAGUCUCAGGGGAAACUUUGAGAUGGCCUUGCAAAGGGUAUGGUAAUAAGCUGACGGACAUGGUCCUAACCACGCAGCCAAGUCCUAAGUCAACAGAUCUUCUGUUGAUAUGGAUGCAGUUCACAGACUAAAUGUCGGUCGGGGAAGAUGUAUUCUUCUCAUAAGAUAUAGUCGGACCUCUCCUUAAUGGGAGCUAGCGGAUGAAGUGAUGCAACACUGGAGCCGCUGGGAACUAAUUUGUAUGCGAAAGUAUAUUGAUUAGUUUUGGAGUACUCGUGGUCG;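 further: selection with 25 µg/mL kanamycin versus none on LB agar overnight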
# cond: 37 °C
Just so you know, the groups by self-splicing fitness (ln) go like this: class 1 = under -2, class 2 = from -2 up to -0.9, class 3 = -0.9 and over

>>> class_name("CUUGAGCAAUAUUACGGAUU")
"class 1"
>>> class_name("CUUCAGCAAUAUUACGACCU")
"class 2"
>>> class_name("GCCAAGCAAUAUUACGAAUG")
"class 2"
>>> class_name("CAUUAGCAAUAUUACGUCUU")
"class 1"
>>> class_name("AAAGAGCAAUAUUACGAUCU")
"class 3"
>>> class_name("GAUGAGCAAUAUUACGGUUU")
"class 2"
>>> class_name("UUGGAGCAAUAUUACGCCCU")
"class 2"
>>> class_name("UGAAAGCAAUAUUACGGGUA")
"class 3"
>>> class_name("AGGGAGCAAUAUUACGUAAA")
"class 1"
>>> class_name("GCGUAGCAAUAUUACGGCUU")
"class 3"
>>> class_name("CUACAGCAAUAUUACGCAUA")
"class 1"
>>> class_name("AGUCAGCAAUAUUACGAUUC")
"class 2"
>>> class_name("GCUCAGCAAUAUUACGCGCU")
"class 3"
>>> class_name("AGGAAGCAAUAUUACGCCCG")
"class 3"
>>> class_name("UACAAGCAAUAUUACGCCGG")
"class 3"
>>> class_name("UCACAGCAAUAUUACGUGUG")
"class 1"
>>> class_name("ACCCAGCAAUAUUACGACUU")
"class 3"
>>> class_name("AAUCAGCAAUAUUACGUCGC")
"class 2"
>>> class_name("AAUCAGCAAUAUUACGUUCU")
"class 3"
>>> class_name("CGUAAGCAAUAUUACGACGU")
"class 2"
>>> class_name("CGUCAGCAAUAUUACGAGUU")
"class 2"
>>> class_name("GAAUAGCAAUAUUACGCGCU")
"class 3"
>>> class_name("CGUUAGCAAUAUUACGCUGA")
"class 1"
>>> class_name("CAAGAGCAAUAUUACGCUUG")
"class 1"
>>> class_name("AUGAAGCAAUAUUACGAAUA")
"class 3"
>>> class_name("CCACAGCAAUAUUACGCGUG")
"class 1"
>>> class_name("UCCAAGCAAUAUUACGUUAG")
"class 1"
>>> class_name("UUGGAGCAAUAUUACGACGA")
"class 3"
>>> class_name("CGAAAGCAAUAUUACGUAGG")
"class 3"
>>> class_name("UAAAAGCAAUAUUACGGAAU")
"class 1"
>>> class_name("UCGAAGCAAUAUUACGUGGU")
"class 1"
>>> class_name("ACGGAGCAAUAUUACGAAGC")
"class 1"
>>> class_name("GGUGAGCAAUAUUACGUUAA")
"class 2"
>>> class_name("GUGCAGCAAUAUUACGAAUA")
"class 2"
>>> class_name("UCCCAGCAAUAUUACGGAUC")
"class 2"
>>> class_name("UAGUAGCAAUAUUACGACCC")
"class 2"
>>> class_name("CCCUAGCAAUAUUACGUUAU")
"class 1"
>>> class_name("CGACAGCAAUAUUACGACGG")
"class 3"
>>> class_name("UCGGAGCAAUAUUACGCUAU")
"class 1"
>>> class_name("UUCCAGCAAUAUUACGGUUU")
"class 3"
>>> class_name("UCUUAGCAAUAUUACGCGUU")
"class 2"
>>> class_name("GACUAGCAAUAUUACGGCAC")
"class 3"
>>> class_name("GACAAGCAAUAUUACGCAUC")
"class 1"

These data points were gathered from the supplement of paper PMC7877785.
